Kindly state Eff % for each of the entries shown.
Test system: Retinoid X Receptor (RXR) response element RXRE
TEST_METHOD_NOTES: Reporter gene transcription assay pRXRE
Assay type: cell-based
CONDITION_INFO: pRXRE; normalized to 9-cis retinoic acid
State the value, then name its unit.

Could you tell me Eff % for each of these compounds? They are listed below.
1. CC1(C)CCC(C)(C)c2cc3c(cc21)Sc1ccccc1N=C3c1ccc(C(=O)O)cc1
2. CC1=C(/C=C/C(C)=C\C=C\C(C)=C\C(=O)O)C(C)(C)CCC1 [9-cis-RA, 9-cis-Retinoic Acid]
3. CC1(C)CCC(C)(C)c2cc(N(CC3CC3)c3ncc(C(=O)O)cn3)ccc21

Found:
26%
100%
44%

Could you tell me Eff % for each of these compounds? They are listed below.
1. C=C(c1ccc(C(=O)O)cc1)c1cc2c(cc1C)C(C)(C)CCC2(C)C
2. C=CCc1c(C)nc(-c2ccccc2)nc1Nc1ccc(C(=O)O)cc1

Found:
1. 44%
2. 4%
